Measured metric: melting point

Please review the following examples before continuing.
Exercise: Any idea what its melting point is? The compound is Clc1cc(Cl)c(Cl)c(CBr)c1
Solution: 40 to 42 °C

Exercise: And CCCc1c(OCCCOc2ccc3c(c2CCC)OC(CCC(=O)OC)CC3=O)ccc(C(C)=O)c1O (stereo unspecified) ?
Solution: 101 to 102 °C

Exercise: Also COCCCNCCCc1ccc(-c2cnc(N)c(C(=O)Nc3cccnc3)n2)cc1 ?
Solution: 113 °C

Exercise: Would you mind doing O=C1Nc2cccc(I)c2C(=O)N2CC[C@@H]12 as well?
Solution: 186 to 187 °C

Exercise: Another compound: CC(C)(Sc1ccncc1)C(=O)O
Solution: 190 to 192 °C

Exercise: Quick one: CCOC(=O)C1(O)C(=O)Nc2c(OC)cc(CCNC(=O)C(F)(F)F)cc21 (stereo unspecified)
Solution: 115 to 117 °C

Others:
Exercise: For the compound shown here, CC(=O)OC(=Cc1ccccc1)c1ccc(OC(C)=O)c(OC(C)=O)c1[N+](=O)[O-] , give the reported melting point.
Solution: 119 to 121 °C

Exercise: Repeat for the following compound: CC1CC(=O)NN=C1c1ccc(NC(=O)C2CC2(Cl)Cl)cc1 (stereo unspecified)
Solution: 252 to 253 °C

Exercise: // repeat for N#CC1(N)CCc2ccc3ccccc3c2C1 (stereo unspecified) and report
Solution: 75 to 78 °C

Exercise: Would you kindly repeat that for CCOC(=O)c1c(OCC)nsc1NC(=O)N(C)C ?
Solution: 164 to 165 °C

Exercise: Same thing, different compound: CCCCN(CCCCO)c1ccc(C=Cc2ccc(C=CC3=C(C#N)C(=C(C#N)C#N)OC3(C)C)s2)c(OCc2ccccc2)c1
Solution: 216 to 217 °C

Exercise: Can you check CNc1cc(Oc2ccc3c(c2)OCCN3)ncn1 next?
Solution: 153 °C

Exercise: How about this compound: CCCCNS(=O)(=O)CC(O)C(O)C(CC1CCCCC1)NC(=O)C(CC)Cc1c[nH]cn1 (stereo unspecified)
Solution: 60 to 90 °C

----------
Below is a list of entries, each paired with its recorded melting point value.

Worked set:
Exercise: Consider the molecule shown here: Nc1cnc(Cl)c(Cl)c1 What is its recorded melting point?
Solution: 110 to 113 °C

Exercise: And then CCCc1c(CSc2nnc(SCCCCCC(=O)O)s2)ccc(C(C)=O)c1O , what is it?
Solution: 67 to 74 °C

Exercise: Query CSc1ccc(-c2cc(=O)nc(N)o2)cc1 next
Solution: 266 to 267 °C

Continuing:
Exercise: Any idea what its melting point is? The molecule is NC(=O)c1c(Cl)c(-c2ccccc2)n2c1CN(C(=O)c1cccs1)CC2
Solution: 236 to 238 °C

Exercise: Also check FC(F)c1cc(-c2ccc(C(F)(F)F)cc2)nc2cncn12
Solution: 173 °C

Exercise: And O=C(Cl)c1csc(=O)[nH]1 ?
Solution: 184 °C

Exercise: Please do the same for O=C(OCCS(=O)(=O)CCCOCCc1ccccc1)c1ccccc1 as well.
Solution: 65.5 °C

----------
Measured metric: melting point

Exercise: Consider the compound COc1ccccc1OCC1SCCN1C(=O)CBr (stereo unspecified) and give its measured melting point.
Solution: 82 to 84 °C

Exercise: Repeat with CC(=O)N1C(SCc2ccccc2N(C)C)=NC(=O)C1(C)C
Solution: 99 to 100 °C

Exercise: And the next one, CC1CN(Cn2cc(C#N)c(-c3cccc(Cl)c3Cl)c2)CC(C)O1 (stereo unspecified) ?
Solution: 91 to 97 °C

Exercise: Again, but for c1ccc(CN2CCC(n3cnnc3-c3ccccc3)CC2)cc1
Solution: 111 to 114 °C

Exercise: Then CC(C)(C)c1cc(SCCC(=O)NCC(=O)c2ccccc2)cc(C(C)(C)C)c1O ?
Solution: 146 to 148 °C

Exercise: Then what about the compound CCCCCC(Br)C(Br)CC(Br)C(Br)CCCCCCCBr (stereo unspecified) ?
Solution: 62 to 64 °C

Exercise: Likewise for CCOC(=O)COc1ccc(Cn2c(-c3ccc(OC)cc3)c(C)c3cc(OCc4ccccc4)ccc32)cc1 ?
Solution: 90 to 96 °C

Exercise: Another compound to check: CC(=O)c1ccc(N2C(=O)C(=O)N(c3cccc(Cl)c3)C2=O)cc1
Solution: 148 °C

Exercise: Next compound up: CCCOc1ccccc1-c1nc2cc3ncn(Cc4ccccc4)c3cc2c(=O)[nH]1
Solution: 218 to 219 °C

Exercise: // query: CC(C)(C)OC(=O)[C@H]1CC[C@@H](c2ccccc2)N1C(=O)CNC(=O)Nc1cccc(OCC(=O)O)c1 (racemic)
Solution: 192 °C

Continuing:
Exercise: Requested field: melting point. Item: COc1ccc2cc(CC(C(C)=O)C(=O)OC(C)(C)C)ccc2c1 (stereo unspecified)
Solution: 63.6 °C

Exercise: Try this compound too: O=C(N1c2ccccc2C=Cc2ccccc21)C(F)(F)F
Solution: 85 to 91 °C

Exercise: Also need CC(C)CCCC(C)C1CCC2C3CC=C4CC(OCCCCCCSC5OCC(O)C(O)C5O)CCC4(C)C3CCC12C (stereo unspecified) , thanks.
Solution: 115 °C

----------
Measured metric: melting point

Please review the following examples before continuing.
Exercise: Returns the measured melting point for the input compound. Input: O=C(c1ccc(C2CCCCC2)cc1)[C@H]1C[C@H]1C(=O)O (relative stereo)
Solution: 162 to 163 °C

Exercise: Could you do the same for NC(=O)c1ccc(O[C@@H]2CNC[C@H]2O)cc1 (relative stereo) , please?
Solution: 202 to 203 °C

Exercise: Entry to check: Cc1c(/C=C2\COc3ccccc3C2=O)ncn1C(c1ccccc1)(c1ccccc1)c1ccccc1
Solution: 231 to 233 °C

Exercise: Thanks! And O=C(CCCCl)CN1C(=O)c2ccccc2C1=O ?
Solution: 133 to 134 °C

Kindly consider the entry below.
Exercise: Given the entry CC(O)Cc1cnn(-c2c(Cl)cc(C(F)(F)F)cc2Cl)n1 (stereo not given) , report its measured melting point.
Solution: 68 to 69 °C

----------
Measured metric: melting point

Exercise: melting point for COc1cc(COc2nn(-c3ccccc3)cc2/C=C/C2=NCCO2)ccc1OCc1nc(-c2ccco2)oc1C ?
Solution: 162 to 163 °C

Exercise: Entry to check: CN1CC(CCCCN2CCN(c3ncccn3)CC2)OC1=O (stereo unspecified)
Solution: 74 to 76 °C

Exercise: Same thing, different molecule: COc1cc2c(c3c1OC(C)(C)C3)C(c1cccc(-c3ccc(C(=O)O)cc3)c1)=NC(C)(C)C2
Solution: 161 to 165 °C

Exercise: Next molecule up: OC(CNCc1ccccc1)c1cc(C(F)(F)F)nc2c(C(F)(F)F)cccc12 (stereo unspecified)
Solution: 138 to 139 °C

Exercise: Now give it for C[C@H](CO)Nc1nc(SCc2cccc(F)c2F)nc2[nH]c(=O)cnc12 too.
Solution: 215 to 217 °C

Alright, here's another molecule for you.
Exercise: GET /values?readout=melting point&item= CC(=O)Nc1cccc2c1C(C#N)C2 (stereo unspecified)
Solution: < 50 °C

----------
Measured metric: melting point

Solved cases below.
Exercise: melting point lookup needed for CCCCCCCCCCCCc1cc(C=O)on1 , thanks.
Solution: 53 to 54 °C

Exercise: # repeat for CCOP(=O)(/C=C/c1ccc(C(=O)OC)cc1)OCC
Solution: 60 to 65 °C

Next:
Exercise: Data request, read-out melting point, for CC1(C)CCC(C)(C)c2cc(NC(=O)c3ccc(CO)cc3)ccc21
Solution: 161 to 162 °C

Exercise: Please give the result for O=C(O)C1=Cc2cc(Cl)c(Oc3ccc(C(F)(F)F)cc3)cc2OC1C(F)(F)F (stereo not drawn) too.
Solution: 231 to 232 °C

----------
compounds and their reported melting point

# annotated cases, reported melting point shown
Exercise: // melting point lookup, key: CN1CCN(CCCN2c3ccc(F)cc3Sc3ccc(S(=O)(=O)N(C)C)cc32)CC1
Solution: 166 to 169 °C

Exercise: What about this compound? CCOC(=O)c1cc2c(OC)cc3c(c2n1Cc1ccccc1)CCCC3
Solution: 86 to 88 °C

Consider the record given below.
Exercise: I have this compound here, CCC1=Nc2cc(CO)ccc2C(=O)C1 , and I need its recorded melting point.
Solution: 254 to 257 °C

----------
Measured melting point, listed per entry for reference.

Exercise: Recorded melting point of COCOc1cccc2c(=O)[nH]c(C3CCN(C)CC3)cc12 , please.
Solution: 194 to 196 °C

Exercise: Follow-up entry: COC(=O)C(=Cc1cc(OC)c(OC)cc1Br)c1ccccc1C(=O)OC
Solution: 117 to 119 °C

Exercise: Field entry: O=C(O)Cc1c(C(=O)c2ccc(Cl)c(F)c2)[nH]c2cc(Cl)ccc12
Solution: 179 to 182 °C

Exercise: Next up: C=CCC1(C)OC(=S)Nc2ccc(-c3cccc(Cl)c3)cc21 (stereo not given)
Solution: 150 to 151 °C

Exercise: Same read-out for O=C(O)c1cc2n(c1)CCc1ccccc1C2=O ?
Solution: 287 to 290 °C

Exercise: Same again, this time with Cc1cc(F)ccc1-c1nc(NC2CCOCC2)nc2c1ccc(=O)n2-c1ccccc1F
Solution: 211 to 212 °C

Exercise: Also, CN(Cc1ccc(NC(=O)C2=Cc3cc(-c4ccc(C(C)(C)C)cc4)ccc3S(=O)(=O)CC2)cc1)C1CCOCC1 please.
Solution: 247 to 249 °C

Exercise: Okay, and COc1ccc(C2CC(C(C)(C)C)=NN2c2ccc(C(=O)O)cc2)c(OC)c1 (stereo not given) ?
Solution: 214 °C

***
Exercise: For CSc1ccc(C(=O)NCc2ccc3c(c2)C(=O)N(C2(C)CCC(=O)NC2=O)C3=O)nc1 (stereo not given) , what is its reported melting point?
Solution: 210 to 212 °C

Exercise: Same thing, different compound: COCCOc1ccc(O)c(C(=O)O)c1
Solution: 115 to 116 °C

Reference for the values: a melting point compilation (Tetko et al.; mined from patent text by program, amines drawn as free bases though some values may be those of a salt)
